The compounds listed here are annotated with their TGI.
Tested on: HCT-116 colon
Assay: NCI tumour cell line growth inhibition, 48 h
endpoint-name: TGI

1) CS(=O)(=O)CCc1cccc(C(=O)c2cnn(-c3ccc(F)cc3)c2N)c1
> 25 µM
2) O=C(Nc1ccc2[nH]c(C(=O)N3CC(CCl)c4c3cc([N+](=O)[O-])c3ccccc43)cc2c1)Nc1ccc2[nH]c(C(=O)N3CC(CCl)c4c3cc([N+](=O)[O-])c3ccccc43)cc2c1 (stereo not given)
> 100 µM
3) O=c1[nH]nc(Cc2c[nH]c3ccccc23)o1
> 100 µM
4) O=c1[nH]nc(-c2ccccc2)n1/N=C/c1cccs1
> 100 µM
5) Cc1ccc(O)c(C2=CC(c3cccc(Cl)c3)SC(N)=N2)c1 (stereo not given)
39.7 µM
6) C/C1=C/C(=O)O[C@@H]2C[C@@H](CC[C@H](C)/C=C\C=C\CC1)O[C@@](O)([C@@H]1CSC(=O)N1)C2
> 10 µM
7) CC(=O)NC1(c2cc3ccccc3s2)CCCCCC1
> 100 µM
8) CCN(CC)c1ccc(C(O)C2=CC(=O)c3ccccc3C2=O)cc1 (stereo not given)
3.14 µM
9) NCCCCCCCn1c2c(c3ccccc3c1=O)C(=O)c1ccccc1-2
2.81 µM
10) CC1CCCC(C(O)CC2CC(=O)NC(=O)C2)C1O (stereo not given)
> 100 µM

---

Tested on: OVCAR-8 ovarian
Test: NCI tumour cell line growth inhibition, 48 h
endpoint-name: GI50

1) O=c1cc(-c2cccc3c2Sc2ccccc2S3)oc(N2CCOCC2)c1
12.9 µM
2) Cn1c2c(c3ccc([N+](=O)[O-])cc3c1=O)C(=O)c1ccccc1-2
> 100 µM
3) C=C1CCC2C3(C)COC(c4ccccc4)OC3CCC2(C)C1/C=C/C1=CCOC1=O (centres undefined)
4.11 µM
4) O=C(Nc1ccncc1)C(=O)c1cn(S(=O)(=O)c2ccc(Cl)cc2)c2ccccc12
1.63 µM
5) O=C(c1ccccc1)C1OC1c1ccc([N+](=O)[O-])cc1 (centres undefined)
4.71 µM
6) CS(=O)(=O)CCc1cccc(C(=O)c2cnn(-c3ccc(F)cc3)c2N)c1
> 25 µM
7) O=C(c1ccccc1)C(CN1CCCCC1)c1ccccc1 (centres undefined)
1.7 µM
8) Oc1ccc(-c2nc3ccccc3s2)cc1CN(Cc1ccccn1)Cc1ccccn1
0.52 µM
9) O=C1C=CC(=Nc2cc(Br)c(O)c(Br)c2)C=C1
14.9 µM

---

Test system: IGROV1 ovarian
Assay: NCI tumour cell line growth inhibition, 48 h
The compounds listed here are annotated with their TGI.
endpoint-name: TGI (µM)

1) O=C(c1ccccc1)C1OC1c1ccc([N+](=O)[O-])cc1 (configuration not stated)
11.6
2) O=C(c1ccccc1)C(CN1CCCCC1)c1ccccc1 (configuration not stated)
3.34
3) Cc1cccc(C(C)(C)C)c1NC(=O)CC1C(=O)Nc2ccccc2S1(=O)=O (configuration not stated)
21.8
4) COc1cc(NCCCN=C(N)NC(N)=NC(C)C)c2ncccc2c1
3.77
5) CC[C@@]1(C)CCC2c3ccc(O)cc3CC[C@H]2C1C (some centres not stated)
38.1
6) CC(=O)C1=C(O)C=C2Oc3c(C(=O)/C=C/c4c(Cl)cccc4Cl)c(O)c(C)c(O)c3[C@]2(C)C1=O
9.37
7) O=C(Nc1ccc(-n2ccc3c(NC(=O)c4ccccc4)ncnc32)cc1)Nc1ccc(Cl)c(Cl)c1
18.2
8) COc1cccc(NC(=O)c2sc3nc(C)c(C(O)c4ccccc4)cc3c2N)c1 (configuration not stated)
16.8
9) NCCCCCCCn1c2c(c3ccccc3c1=O)C(=O)c1ccccc1-2
3.58

Value source: PubChem BioAssay (NCI)
